FYI, the data here is from ChEMBL document CHEMBL1137344.

// values below are reported pIC50
# System: P388/ADR
# ASSAY COMMENT: Antiproliferative activity against adriamycin resistant P388 cells by ELISA
# Format: functional, cell-based
# CONDITIONS: Mus musculus
Keep it numeric: pIC50 is minus log10 of the concentration in mol/L.

CC(=O)O[C@H]1C(=O)[C@@]2(C)[C@H]([C@H](OC(=O)c3ccccc3)[C@]3(O)C[C@H](OC(=O)[C@H](O)[C@@H](NC(=O)c4ccccc4)c4ccccc4)C(C)=C1C3(C)C)[C@]1(OC(C)=O)CO[C@@H]1C[C@@H]2O [PACLITAXEL]	5.79

Now consider the entry below.
Qu. GET pIC50 | system: P388/ADR | item: CC[C@]1(O)C[C@H]2CN(CCc3c([nH]c4ccccc34)[C@@](C(=O)OC)(c3cc4c(cc3OC)N(C=O)[C@H]3[C@@](O)(C(=O)OC)[C@H](OC(C)=O)[C@]5(CC)C=CCN6CC[C@]43[C@@H]65)C2)C1 [VINCRISTINE]
Ans. 6.52

---

# Test system: P388
# ASSAY COMMENT: Antiproliferative activity against P388 cells by ELISA
# Format: functional, cell-based
# CONDITIONS: Mus musculus
Entries and their measured pIC50 follow.
Scale: pIC50 equals -log10([C]), with [C] in mol/L.

Examples from the recorded data:
O=C1c2c(O)ccc(O)c2C(=O)c2c(NCCNCCO)ccc(NCCNCCO)c21	8.37
CC(=O)O[C@H]1C(=O)[C@@]2(C)[C@H]([C@H](OC(=O)c3ccccc3)[C@]3(O)C[C@H](OC(=O)[C@H](O)[C@@H](NC(=O)c4ccccc4)c4ccccc4)C(C)=C1C3(C)C)[C@]1(OC(C)=O)CO[C@@H]1C[C@@H]2O	7.66

We now examine a further compound.
Qu. Output pIC50 of CC[C@]1(O)C[C@H]2CN(CCc3c([nH]c4ccccc34)[C@@](C(=O)OC)(c3cc4c(cc3OC)N(C=O)[C@H]3[C@@](O)(C(=O)OC)[C@H](OC(C)=O)[C@]5(CC)C=CCN6CC[C@]43[C@@H]65)C2)C1
Ans. 8.66

---

# System: P388
# ASSAY COMMENT: Antiproliferative activity against P388 cells by ELISA
# Type: functional, cell-based
# CONDITIONS: Mus musculus
MEASUREMENT LABEL: IC50 (nM)
# output: bare number, implied unit nM

Recorded IC50, per entry:
COc1cccc2c1C(=O)c1c(O)c3c(c(O)c1C2=O)C[C@@](O)(C(=O)CO)C[C@@H]3O[C@H]1C[C@H](N)[C@H](O)[C@H](C)O1 [DOXORUBICIN]	22
CC[C@]1(O)C[C@@H]2CN(CCc3c([nH]c4ccccc34)[C@@](C(=O)OC)(c3cc4c(cc3OC)N(C)[C@H]3[C@@](O)(C(=O)OC)[C@H](OC(C)=O)[C@]5(CC)C=CCN6CC[C@]43[C@@H]65)C2)C1 [VINBLASTINE]	4.1

Query molecule follows.
Qu. Would you please give the reported IC50 of COc1cccc2c1C(=O)c1c(O)c3c(c(O)c1C2=O)C[C@@](O)(C(C)=O)C[C@@H]3O[C@H]1C[C@H](N)[C@H](O)[C@H](C)O1 [DAUNORUBICIN] with P388?
Ans. 25
